Examples of binders with documented MCF7 proliferation % inhibition follow.
targetEntity: Human HER3, endogenous, on human cancer cell lines (SK-Br-3, MCF7, BT-474) (human, UniProt P21860 20-1342)
Sequence (P21860 20-1342): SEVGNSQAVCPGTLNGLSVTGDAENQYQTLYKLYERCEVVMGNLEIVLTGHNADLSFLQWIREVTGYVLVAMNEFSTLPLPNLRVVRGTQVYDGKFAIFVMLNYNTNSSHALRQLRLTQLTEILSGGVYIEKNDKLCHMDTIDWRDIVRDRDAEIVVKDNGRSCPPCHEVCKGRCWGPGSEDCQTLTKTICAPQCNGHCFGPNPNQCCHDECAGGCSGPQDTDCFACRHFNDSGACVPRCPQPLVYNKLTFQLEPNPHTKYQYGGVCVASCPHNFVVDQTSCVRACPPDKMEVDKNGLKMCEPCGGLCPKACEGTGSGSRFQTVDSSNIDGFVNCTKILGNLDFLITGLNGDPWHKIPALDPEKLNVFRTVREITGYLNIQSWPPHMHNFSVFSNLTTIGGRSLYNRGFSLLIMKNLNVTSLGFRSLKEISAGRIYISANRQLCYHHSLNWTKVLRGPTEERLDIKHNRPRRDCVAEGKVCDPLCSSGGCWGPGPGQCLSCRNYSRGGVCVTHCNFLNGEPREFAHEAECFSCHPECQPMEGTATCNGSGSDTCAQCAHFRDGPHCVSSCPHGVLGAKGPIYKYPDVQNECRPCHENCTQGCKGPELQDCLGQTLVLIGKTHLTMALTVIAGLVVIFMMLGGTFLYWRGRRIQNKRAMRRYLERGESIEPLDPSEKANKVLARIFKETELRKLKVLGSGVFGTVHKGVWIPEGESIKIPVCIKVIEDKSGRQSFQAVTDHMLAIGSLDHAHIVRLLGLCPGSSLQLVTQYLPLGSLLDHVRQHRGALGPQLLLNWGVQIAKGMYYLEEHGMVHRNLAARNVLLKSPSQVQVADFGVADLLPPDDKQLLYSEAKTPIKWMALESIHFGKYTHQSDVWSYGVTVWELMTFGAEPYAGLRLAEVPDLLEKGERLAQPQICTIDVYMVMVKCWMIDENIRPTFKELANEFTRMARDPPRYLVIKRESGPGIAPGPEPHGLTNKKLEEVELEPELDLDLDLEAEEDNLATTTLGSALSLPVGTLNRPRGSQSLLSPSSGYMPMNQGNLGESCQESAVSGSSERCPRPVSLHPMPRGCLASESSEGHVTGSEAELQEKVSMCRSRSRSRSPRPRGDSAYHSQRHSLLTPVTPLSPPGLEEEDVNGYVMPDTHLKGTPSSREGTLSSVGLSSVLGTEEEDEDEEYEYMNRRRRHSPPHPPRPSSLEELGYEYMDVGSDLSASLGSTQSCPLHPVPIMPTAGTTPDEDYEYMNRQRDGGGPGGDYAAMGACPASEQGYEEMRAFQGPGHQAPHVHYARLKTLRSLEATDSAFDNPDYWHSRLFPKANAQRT
methodDescription: cell-based or functional assay
Return type: number; implicit unit %.

Below, each entry is followed by its recorded MCF7 proliferation % inhibition result.
binder	measureName	value
MOR12509 (antibody, human IgG1, kappa, V domains shown, tested as IgG) VH: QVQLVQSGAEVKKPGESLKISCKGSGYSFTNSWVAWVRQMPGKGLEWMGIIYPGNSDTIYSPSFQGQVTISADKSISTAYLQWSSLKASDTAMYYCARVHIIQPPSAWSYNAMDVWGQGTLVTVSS VL: DIQMTQSPSSLSASVGDRVTITCRASQSITHYLNWYQQKPGKAPKLLIFGASNLQSGVPSRFSGSGSGTDFTLTISSLQPEDFATYYCQQAFVDPSTTFGQGTKVEIKR	MCF7 proliferation % inhibition	24
MOR13759 (antibody, human IgG1, kappa, V domains shown, tested as IgG) VH: QVQLVQSGAEVKKPGESLKISCKGSGYSFTTTWVAWVRQMPGKGLEWMGIIYPGLSDTIYSPSFQGQVTISADKSISTAYLQWSSLKASDTAMYYCARVHIIQPPSAWSYNAMDVWGQGTLVTVSS VL: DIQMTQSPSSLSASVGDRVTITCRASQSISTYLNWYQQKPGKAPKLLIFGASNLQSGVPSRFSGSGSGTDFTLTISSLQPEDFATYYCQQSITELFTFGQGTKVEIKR	MCF7 proliferation % inhibition	49

Attention now turns to another entry.
Ask: Look up MCF7 proliferation % inhibition: MOR12925 (antibody, human IgG1, kappa, V domains shown, tested as IgG) VH: QVQLVQSGAEVKKPGESLKISCKGSGYSFSNYWIAWVRQMPGKGLEWMGIIYPGNSDTIYSPSFQGQVTISADKSISTAYLQWSSLKASDTAMYYCARVHIIQPPSAWSYNAMDVWGQGTLVTVSS VL: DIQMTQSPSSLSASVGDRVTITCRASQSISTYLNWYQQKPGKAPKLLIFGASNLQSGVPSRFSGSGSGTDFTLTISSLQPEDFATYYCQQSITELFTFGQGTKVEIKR
Reply: 47

Data provenance: patent US20130273029A1
